# system under test: T1, rat NK1 receptor (rat, UniProt P14600 1-407)
# T1 construct: whole, on cells; Assayed as membrane preparations of transfected CHO cells; also called rNK1; rNK-1
# T1 sequence (P14600 whole entry): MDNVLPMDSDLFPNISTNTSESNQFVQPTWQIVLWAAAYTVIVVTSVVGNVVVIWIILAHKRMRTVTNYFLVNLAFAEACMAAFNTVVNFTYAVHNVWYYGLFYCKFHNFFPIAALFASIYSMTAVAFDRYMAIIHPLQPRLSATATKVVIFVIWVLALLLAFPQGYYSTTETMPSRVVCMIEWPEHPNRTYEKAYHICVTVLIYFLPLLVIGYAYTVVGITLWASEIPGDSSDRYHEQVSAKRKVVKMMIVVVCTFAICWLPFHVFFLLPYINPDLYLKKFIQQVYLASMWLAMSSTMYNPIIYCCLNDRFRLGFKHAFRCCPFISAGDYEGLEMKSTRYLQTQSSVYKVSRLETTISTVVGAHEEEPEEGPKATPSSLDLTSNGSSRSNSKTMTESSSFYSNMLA
# test: competition vs [3H]substance P, membranes of rNK1-transfected CHO cells
Square brackets hold non-standard residues; d marks the D form. * marks the point of attachment. OBzl(3,5-(CF3)2) = FC(F)(F)c1cc(CO*)cc(C(F)(F)F)c1
endpoint label: LogIC50

# binder, LogIC50
records = [
    ("H-Y[dA]GFMPLW-{OBzl(3,5-(CF3)2)} (also: TFA salt, TFA salt; also called TY005; TY5) [H-Tyr-D-Ala-Gly-Phe-Met-Pro-Leu-Trp-O-3,5-Bzl(CF3)2]", -8.22),
    ("H-Y[dA]GF[dF]PLW-{OBzl(3,5-(CF3)2)} (also: TFA salt, TFA salt; also called TY007) [H-Tyr-D-Ala-Gly-Phe-D-Phe-Pro-Leu-Trp-O-3,5-Bzl(CF3)2]", -7.22),
]

Problem: Find the recorded LogIC50 belonging to H-Y[dA]GFGPLW-{OBzl(3,5-(CF3)2)} (also: TFA salt, TFA salt; also called TY006) [H-Tyr-D-Ala-Gly-Phe-Gly-Pro-Leu-Trp-O-3,5-Bzl(CF3)2] and report it.
Solution: -7.83
